tested on: PC-3; test: in vitro inhibition of tumor cell growth in cultured PC-3 human tumor cell line; assay type: functional, cell-based
# note: exactly 0.2 µg/mL is not below, so it is FALSE; use TRUE for IC50 strictly under it

* COC1=C(C)C(=O)C2=C(C1=O)[C@@H](COC(N)=O)[C@@]1(OC)[C@H]3N[C@H]3CN21 [MITOMYCIN A] | TRUE
* CO[C@@]12[C@H](COC(N)=O)C3=C(C(=O)C(C)=C(Nc4ccccc4)C3=O)N1C[C@@H]1N[C@@H]12 | TRUE
* CO[C@@]12[C@H](COC(N)=O)C3=C(C(=O)C(C)=C(Nc4ccc(Oc5ccc(NC6=C(C)C(=O)C7=C(C6=O)[C@@H](COC(N)=O)[C@@]6(OC)[C@H]8NC8CN76)cc5)cc4)C3=O)N1CC1N[C@@H]12 (stereo not given in full) | TRUE
* CO[C@@]12[C@H](COC(N)=O)C3=C(C(=O)C(C)=C(N)C3=O)N1C[C@@H]1N[C@@H]12 [MITOMYCIN] | FALSE

----------
system: U-87 MG; experiment: in vitro anticancer activity against cultured U87MG (glioblastoma) human tumor cell line; type: functional, cell-based, U-87MG ATCC
measured attribute: IC50 (µg/mL)

• CO[C@@]12[C@H](COC(N)=O)C3=C(C(=O)C(C)=C(Nc4ccc(Oc5ccc(NC6=C(C)C(=O)C7=C(C6=O)[C@@H](COC(N)=O)[C@@]6(OC)[C@H]8NC8CN76)cc5)cc4)C3=O)N1CC1N[C@@H]12 (some centres not stated) = 0.32

----------
test system: KB; assay: in vitro anticancer activity against cultured KB(epidermoid) human tumor cell line; format: functional, cell-based
Known IC50 of a selection of molecules
measured attribute: IC50 (mg/L)

• CO[C@@]12[C@H](COC(N)=O)C3=C(C(=O)C(C)=C(NCCNCCNC4=C(C)C(=O)C5=C(C4=O)[C@@H](COC(N)=O)[C@@]4(OC)[C@H]6NC6CN54)C3=O)N1CC1N[C@@H]12 (stereo partly drawn) = 0.98
• CO[C@@]12[C@H](COC(N)=O)C3=C(C(=O)C(C)=C(N)C3=O)N1C[C@@H]1N[C@@H]12 = 0.1

----------
tested on: U-87 MG; test: in vitro anticancer activity against cultured U87MG (glioblastoma) human tumor cell line; type: functional, cell-based, U-87MG ATCC
Known IC50 of a selection of molecules
measured attribute: IC50

• CO[C@@]12[C@H](COC(N)=O)C3=C(C(=O)C(C)=C(NCCCOCCCNC4=C(C)C(=O)C5=C(C4=O)[C@@H](COC(N)=O)[C@@]4(OC)[C@H]6NC6CN54)C3=O)N1CC1N[C@@H]12 (stereo partly specified) = > 1 µg/mL
• COC1=C(C)C(=O)C2=C(C1=O)[C@@H](COC(N)=O)[C@@]1(OC)[C@H]3N[C@H]3CN21 [MITOMYCIN A] = 0.009 µg/mL
• CO[C@@]12[C@H](COC(N)=O)C3=C(C(=O)C(C)=C(NCc4ccc(CNC5=C(C)C(=O)C6=C(C5=O)[C@@H](COC(N)=O)[C@@]5(OC)[C@H]7NC7CN65)cc4)C3=O)N1CC1N[C@@H]12 (stereo partly specified) = > 1 µg/mL
• CO[C@@]12[C@H](COC(N)=O)C3=C(C(=O)C(C)=C(NCCNCCNC4=C(C)C(=O)C5=C(C4=O)[C@@H](COC(N)=O)[C@@]4(OC)[C@H]6NC6CN54)C3=O)N1CC1N[C@@H]12 (stereo partly specified) = > 1 µg/mL
• CO[C@@]12[C@H](COC(N)=O)C3=C(C(=O)C(C)=C(N)C3=O)N1C[C@H]1[C@@H]2N1C(=O)CCCCC(=O)N1[C@@H]2CN3C4=C(C(=O)C(N)=C(C)C4=O)[C@H](COC(N)=O)[C@]3(OC)[C@@H]21 = > 1 µg/mL
• CO[C@@]12[C@H](COC(N)=O)C3=C(C(=O)C(C)=C(N)C3=O)N1C[C@H]1[C@@H]2N1C(=O)CCCCCC(=O)N1[C@H]2[C@@H]1CN1C3=C(C(=O)C(N)=C(C)C3=O)[C@@H](COC(N)=O)[C@@]21OC = > 1 µg/mL
• CO[C@@]12[C@H](COC(N)=O)C3=C(C(=O)C(C)=C(NCCCNCCCNC4=C(C)C(=O)C5=C(C4=O)[C@@H](COC(N)=O)[C@@]4(OC)[C@H]6NC6CN54)C3=O)N1CC1N[C@@H]12 (stereo partly specified) = > 1 µg/mL
• CO[C@@]12[C@H](COC(N)=O)C3=C(C(=O)C(C)=C(Nc4ccc(CCc5ccc(NC6=C(C)C(=O)C7=C(C6=O)[C@@H](COC(N)=O)[C@@]6(OC)[C@H]8NC8CN76)cc5)cc4)C3=O)N1CC1N[C@@H]12 (stereo partly specified) = 0.51 µg/mL
• CO[C@@]12[C@H](COC(N)=O)C3=C(C(=O)C(C)=C(N)C3=O)N1C[C@@H]1N[C@@H]12 [MITOMYCIN] = 0.97 µg/mL
• CO[C@@]12[C@H](COC(N)=O)C3=C(C(=O)C(C)=C(NCCOCCNC4=C(C)C(=O)C5=C(C4=O)[C@@H](COC(N)=O)[C@@]4(OC)[C@H]6NC6CN54)C3=O)N1CC1N[C@@H]12 (stereo partly specified) = > 10 µg/mL
• CO[C@@]12[C@H](COC(N)=O)C3=C(C(=O)C(C)=C(N)C3=O)N1C[C@H]1[C@@H]2N1C(=O)CCC(=O)N1[C@@H]2CN3C4=C(C(=O)C(N)=C(C)C4=O)[C@H](COC(N)=O)[C@]3(OC)[C@@H]21 = > 1 µg/mL
